# target or test system: MERS-CoV 3CLpro (Middle East respiratory syndrome-related coronavirus, UniProt K9N638)
# Sequence (K9N638 3248-3553 limits assumed): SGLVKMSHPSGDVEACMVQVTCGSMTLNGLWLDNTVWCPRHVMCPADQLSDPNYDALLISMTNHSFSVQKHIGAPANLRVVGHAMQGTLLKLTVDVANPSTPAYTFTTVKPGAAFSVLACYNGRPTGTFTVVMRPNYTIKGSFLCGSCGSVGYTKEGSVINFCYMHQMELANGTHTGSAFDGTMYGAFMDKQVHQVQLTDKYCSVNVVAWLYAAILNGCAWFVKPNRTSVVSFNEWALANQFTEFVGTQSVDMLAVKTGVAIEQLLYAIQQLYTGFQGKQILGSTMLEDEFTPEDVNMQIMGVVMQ
quantity: IC50

Illustrative cases are given below, each with its answer.
CC(C)C[C@@H]1NC(=O)CCCCC[C@H]2CNC(=O)[C@H]2C[C@@H](C#N)NC1=O [Example 38] : > 20000 nM
CCC(C)(C)[C@@H]1NC(=O)[C@@H](NC(=O)OC(C)(C)C)CCCC[C@H]2CNC(=O)[C@H]2C[C@@H](C#N)NC1=O [Example 145] : 1000 to 20000 nM
N#C[C@@H]1C[C@@H]2C(=O)NC[C@@H]2CCCC[C@H](NC(=O)C(F)(F)F)C(=O)N2C[C@@H]3CCC[C@@H]3[C@H]2C(=O)N1 [Example 88] : 100 to 1000 nM
CC(C)C[C@@H]1NC(=O)[C@@H](C2CCCC2)CCC[C@H]2CNC(=O)[C@H]2C[C@@H](C=O)NC1=O [Example 13] : 1000 to 20000 nM

Give the observed IC50 of CC1(C)[C@@H]2[C@H]3C(=O)N[C@H](C#N)C[C@@H]4C(=O)NC[C@@H]4CCCC[C@H](NC(=O)c4ccc(F)c(C(F)(F)F)c4)C(=O)N3C[C@@H]21 [Example 116] for MERS-CoV 3CLpro (Middle East respiratory syndrome-related coronavirus, UniProt K9N638).
< 100 nM

State, for MERS-CoV 3CLpro (Middle East respiratory syndrome-related coronavirus, UniProt K9N638), measured IC50 of the compound listed here: CC1(C)[C@@H]2[C@H]3C(=O)N[C@H](C#N)C[C@@H]4C(=O)NC[C@@H]4CCCC[C@H](NC(=O)C45CCC(C4)C5)C(=O)N3C[C@@H]21 [Example 148]
100 to 1000 nM

Report value: IC50, system: MERS-CoV 3CLpro (Middle East respiratory syndrome-related coronavirus, UniProt K9N638), compound: N#C[C@@H]1C[C@@H]2C(=O)NC[C@@H]2CCCC[C@H](NC(=O)C2(C(F)(F)F)CC2)C(=O)N2CCC3(CC3)C[C@H]2C(=O)N1 [Example 151]
100 to 1000 nM
